Data origin: patent EP4613738A1

- experimental_protocol: Particle characteristics of the prepared formulation by particle size analyzer (Dynamic Light Scattering, DLS)
- Assay type: physicochemical
- condition_details: mRNA formulation; lipid compound:DMG-PEG:DSPC:Cholesterol=50:1.5:10:38.5; N/P ratio 10; buffer exchanged to PBS
- Protocol: The required amounts of the raw materials were mixed in order to meet the N/P ratio (amine group of lipid/phosphate group of mRNA) of 10 and each compound of formulas A to V:DMG-PEG:DSPC:Cholesterol=50:1.5:10:38.5. Ethanol was added to the ethanol layer so that the molecular total of all raw materials was within 12.5 mM, and the aqueous phase and ethanol phase were mixed maintaining a volume ratio of 3:1. […]
Lab note: compare Zeta-potential against 0.5 mV. Equal or greater, write YES. Smaller, write NO.

In plain terms: is recorded Zeta-potential at least 0.5 mV for CCCCCCC(CCCC)COC(=O)CCCCCNC(=O)CCN(C)CCCN(C)CCC(=O)NCCCCCC(=O)OCC(CCCC)CCCCCC (centres unmarked) ?
NO

In plain terms: is recorded Zeta-potential at least 0.5 mV for CCCCOC(=O)CCCCCNC(=O)CCN(C)CCCN(C)CCC(=O)NCCCCCC(=O)OCCCC ?
NO

In plain terms: is recorded Zeta-potential at least 0.5 mV for CCCCCCCCCOC(=O)CCCCCNC(=O)CCN(CCCN(C)C)CCC(=O)NCCCCCC(=O)OCCCCCCCCC ?
YES

In plain terms: is recorded Zeta-potential at least 0.5 mV for CCCCCCC(CCCCCC)COC(=O)CCCCCCCNC(=O)CCN(C)CCCN(C)CCC(=O)NCCCCCCCC(=O)OCC(CCCCCC)CCCCCC ?
YES

In plain terms: is recorded Zeta-potential at least 0.5 mV for CCCCC/C=C\C/C=C\CCCCCCCCOC(=O)CCCCCNC(=O)CCN(C)CCCN(C)CCC(=O)NCCCCCC(=O)OCCCCCCCC/C=C\C/C=C\CCCCC ?
YES

In plain terms: is recorded Zeta-potential at least 0.5 mV for CCCCCCCCC(CCCCCC)COC(=O)CCCCCNC(=O)CCN(CCCN(C)C)CCC(=O)NCCCCCC(=O)OCC(CCCCCC)CCCCCCCC (centres unmarked) ?
YES

In plain terms: is recorded Zeta-potential at least 0.5 mV for CCCCCCC(CCCCCC)COC(=O)CCCCCCCNC(=O)CCN(CCN)CCC(=O)NCCCCCCCC(=O)OCC(CCCCCC)CCCCCC ?
NO

====

- experimental_protocol: Particle characteristics of the prepared formulation by particle size analyzer (Dynamic Light Scattering, DLS)
- Assay type: physicochemical
- condition_details: mRNA formulation; lipid compound:DMG-PEG:DSPC:Cholesterol=50:1.5:10:38.5; N/P ratio 10; buffer exchanged to PBS
measurement_name: Zeta-potential (mV)
// note: answer is a bare numeric in mV

Entry CCCCCCCCCCC(CCCCCCCC)COC(=O)CCCCCNC(=O)CCN(C)CCCN(C)CCC(=O)NCCCCCC(=O)OCC(CCCCCCCC)CCCCCCCCCC (stereo not drawn) — recorded Zeta-potential = 2.04

Entry CCCCCCCCC(OC(=O)CCCCCNC(=O)CCN(C)CCCN(C)CCC(=O)NCCCCCC(=O)OC(CCCCCCCC)C1CC1)C1CC1 (stereo not drawn) — recorded Zeta-potential = 3.56

Entry CCCCCCCCC(CCCCCC)COC(=O)CCCCCNC(=O)CCN(CCC(=O)NCCCCCC(=O)OCC(CCCCCC)CCCCCCCC)CCN1CCOCC1 (stereo not drawn) — recorded Zeta-potential = -9.39

Entry CCCCCCCCCCC(CCCCCCCC)COC(=O)CCCCCNC(=O)CCN(CCN)CCC(=O)NCCCCCC(=O)OCC(CCCCCCCC)CCCCCCCCCC (stereo not drawn) — recorded Zeta-potential = -10.39

Entry CCCCCCC(CCCCCC)COC(=O)CCCCCNC(=O)CCN(C)CCCN(C)CCC(=O)NCCCCCC(=O)OCC(CCCCCC)CCCCCC — recorded Zeta-potential = -6.66

Entry CCCCCCCCC(CCCCCC)COC(=O)CCCCCNC(=O)CCN(C)CCCN(C)CCC(=O)NCCCCCC(=O)OCC(CCCCCC)CCCCCCCC (stereo not drawn) — recorded Zeta-potential = 6.72

====

- experimental_protocol: Particle characteristics of the prepared formulation by particle size analyzer (Dynamic Light Scattering, DLS)
- Assay type: physicochemical
- condition_details: mRNA formulation; lipid compound:DMG-PEG:DSPC:Cholesterol=50:1.5:10:38.5; N/P ratio 10; buffer exchanged to PBS
- Protocol: The required amounts of the raw materials were mixed in order to meet the N/P ratio (amine group of lipid/phosphate group of mRNA) of 10 and each compound of formulas A to V:DMG-PEG:DSPC:Cholesterol=50:1.5:10:38.5. Ethanol was added to the ethanol layer so that the molecular total of all raw materials was within 12.5 mM, and the aqueous phase and ethanol phase were mixed maintaining a volume ratio of 3:1. […]
I'd appreciate it if you could supply Z-average values for the items below.
// note: answer is a bare numeric in nm

Entry CCCCCCCCCCC(CCCCCCCC)COC(=O)CCCCCNC(=O)CCN(CCN)CCC(=O)NCCCCCC(=O)OCC(CCCCCCCC)CCCCCCCCCC (centres unmarked) — recorded Z-average = 113.8

Entry CCCCC/C=C\C/C=C\CCCCCCCCOC(=O)CCCCCNC(=O)CCN(C)CCCN(C)CCC(=O)NCCCCCC(=O)OCCCCCCCC/C=C\C/C=C\CCCCC — recorded Z-average = 120.0

Entry CCCCCCC(CCCC)COC(=O)CCCCCNC(=O)CCN(C)CCCN(C)CCC(=O)NCCCCCC(=O)OCC(CCCC)CCCCCC (centres unmarked) — recorded Z-average = 147.8

Entry CCCCCCCCCCC(CCCCCCCC)COC(=O)CCCCCNC(=O)CCN(C)CCCN(C)CCC(=O)NCCCCCC(=O)OCC(CCCCCCCC)CCCCCCCCCC (centres unmarked) — recorded Z-average = 118.6

Entry CCCCCCCCC(CCCCCC)COC(=O)CCCCCNC(=O)CCN(C)CCCN(C)CCC(=O)NCCCCCC(=O)OCC(CCCCCC)CCCCCCCC (centres unmarked) — recorded Z-average = 118.2

Entry CCCCCCCCC(CCCCCC)COC(=O)CCCCCNC(=O)CCN(CCC(=O)NCCCCCC(=O)OCC(CCCCCC)CCCCCCCC)CCN1CCOCC1 (centres unmarked) — recorded Z-average = 146.7

Entry CCCCCCCCCOC(=O)CCCCCNC(=O)CCN(CCCN(C)C)CCC(=O)NCCCCCC(=O)OCCCCCCCCC — recorded Z-average = 127.3

Entry CCCCCCC(CCCCCC)COC(=O)CCCCCNC(=O)CCN(C)CCCN(C)CCC(=O)NCCCCCC(=O)OCC(CCCCCC)CCCCCC — recorded Z-average = 137.5

Entry CCCCCCC(CCCCCC)COC(=O)CCCCCCCNC(=O)CCN(C)CCCN(C)CCC(=O)NCCCCCCCC(=O)OCC(CCCCCC)CCCCCC — recorded Z-average = 110.3

Entry CCCCCCCCC(CCCCCC)COC(=O)CCCCCNC(=O)CCN(CCCN(C)C)CCC(=O)NCCCCCC(=O)OCC(CCCCCC)CCCCCCCC (centres unmarked) — recorded Z-average = 118.6

Entry CCCCOC(=O)CCCCCNC(=O)CCN(C)CCCN(C)CCC(=O)NCCCCCC(=O)OCCCC — recorded Z-average = 125.9

Entry CCCCCCC(CCCCCC)COC(=O)CCCCCCCNC(=O)CCN(CCN)CCC(=O)NCCCCCCCC(=O)OCC(CCCCCC)CCCCCC — recorded Z-average = 127.0

Entry CCCCCCCCC(OC(=O)CCCCCNC(=O)CCN(C)CCCN(C)CCC(=O)NCCCCCC(=O)OC(CCCCCCCC)C1CC1)C1CC1 (centres unmarked) — recorded Z-average = 121.0

Entry CCCCCCCCCCCCC(CCCCCCCCCC)COC(=O)CCCCCNC(=O)CCN(CCN)CCC(=O)NCCCCCC(=O)OCC(CCCCCCCCCC)CCCCCCCCCCCC (centres unmarked) — recorded Z-average = 128.9

====

- Test system: mRNA
- experimental_protocol: mRNA encapsulation efficiency of the prepared formulation by Ribo-green assay
- Type: physicochemical
- condition_details: lipid compound:DMG-PEG:DSPC:Cholesterol=50:1.5:10:38.5, N/P ratio 10, buffer exchanged to PBS
measurement_name: Encapsulation efficiency

Entry CCCCCCC(CCCCCC)COC(=O)CCCCCNC(=O)CCN(C)CCCN(C)CCC(=O)NCCCCCC(=O)OCC(CCCCCC)CCCCCC — recorded Encapsulation efficiency = > 96.9%

Entry CCCCOC(=O)CCCCCNC(=O)CCN(C)CCCN(C)CCC(=O)NCCCCCC(=O)OCCCC — recorded Encapsulation efficiency = > 87.5%

Entry CCCCCCCCC(CCCCCC)COC(=O)CCCCCNC(=O)CCN(CCCN(C)C)CCC(=O)NCCCCCC(=O)OCC(CCCCCC)CCCCCCCC (centres unmarked) — recorded Encapsulation efficiency = > 93.75%

Entry CCCCCCCCCCC(CCCCCCCC)COC(=O)CCCCCNC(=O)CCN(CCN)CCC(=O)NCCCCCC(=O)OCC(CCCCCCCC)CCCCCCCCCC (centres unmarked) — recorded Encapsulation efficiency = > 93.75%

Entry CCCCC/C=C\C/C=C\CCCCCCCCOC(=O)CCCCCNC(=O)CCN(C)CCCN(C)CCC(=O)NCCCCCC(=O)OCCCCCCCC/C=C\C/C=C\CCCCC — recorded Encapsulation efficiency = > 93.50%

Entry CCCCCCCCC(CCCCCC)COC(=O)CCCCCNC(=O)CCN(C)CCCN(C)CCC(=O)NCCCCCC(=O)OCC(CCCCCC)CCCCCCCC (centres unmarked) — recorded Encapsulation efficiency = > 94.1%

Entry CCCCCCCCC(CCCCCC)COC(=O)CCCCCNC(=O)CCN(CCC(=O)NCCCCCC(=O)OCC(CCCCCC)CCCCCCCC)CCN1CCOCC1 (centres unmarked) — recorded Encapsulation efficiency = > 93.75%

Entry CCCCCCCCC(OC(=O)CCCCCNC(=O)CCN(C)CCCN(C)CCC(=O)NCCCCCC(=O)OC(CCCCCCCC)C1CC1)C1CC1 (centres unmarked) — recorded Encapsulation efficiency = > 93.20%

Entry CCCCCCC(CCCCCC)COC(=O)CCCCCCCNC(=O)CCN(C)CCCN(C)CCC(=O)NCCCCCCCC(=O)OCC(CCCCCC)CCCCCC — recorded Encapsulation efficiency = > 99.2%

Entry CCCCCCC(CCCCCC)COC(=O)CCCCCCCNC(=O)CCN(CCN)CCC(=O)NCCCCCCCC(=O)OCC(CCCCCC)CCCCCC — recorded Encapsulation efficiency = > 93.75%

Entry CCCCCCCCCCCCC(CCCCCCCCCC)COC(=O)CCCCCNC(=O)CCN(CCN)CCC(=O)NCCCCCC(=O)OCC(CCCCCCCCCC)CCCCCCCCCCCC (centres unmarked) — recorded Encapsulation efficiency = > 93.75%

Entry CCCCCCC(CCCC)COC(=O)CCCCCNC(=O)CCN(C)CCCN(C)CCC(=O)NCCCCCC(=O)OCC(CCCC)CCCCCC (centres unmarked) — recorded Encapsulation efficiency = > 93.75%

Entry CCCCCCCCCCC(CCCCCCCC)COC(=O)CCCCCNC(=O)CCN(C)CCCN(C)CCC(=O)NCCCCCC(=O)OCC(CCCCCCCC)CCCCCCCCCC (centres unmarked) — recorded Encapsulation efficiency = > 93.75%

Entry CCCCCCCCCOC(=O)CCCCCNC(=O)CCN(CCCN(C)C)CCC(=O)NCCCCCC(=O)OCCCCCCCCC — recorded Encapsulation efficiency = > 93.75%
